Reference source for all entries: BigSolDB 2.1

details: in toluene, 283.15 K
property measured: solubility (mole fraction)

INSERT INTO assay_data (compound, measured_number) VALUES
  ('OC(Cc1ccccc1Cl)(Cn1[nH]cnc1=S)C1(Cl)CC1 (stereo unspecified)', 0.00196);

---

conditions: in n-propanol, 298.15 K
property measured: solubility (mole fraction)

INSERT INTO results (compound, property_measured, measured_number) VALUES
  ('OC(Cc1ccccc1Cl)(Cn1[nH]cnc1=S)C1(Cl)CC1 (stereo unspecified)', 'solubility (mole fraction)', 0.0248);

---

details: in n-butanol, 293.15 K
property measured: solubility (mole fraction)

INSERT INTO measurements (compound, property_measured, measured_number) VALUES
  ('OC(Cc1ccccc1Cl)(Cn1[nH]cnc1=S)C1(Cl)CC1 (stereo unspecified)', 'solubility (mole fraction)', 0.0215);

---

settings: in acetonitrile, 303.15 K
property measured: solubility (mole fraction)

INSERT INTO assay_data (compound, measured_number) VALUES
  ('OC(Cc1ccccc1Cl)(Cn1[nH]cnc1=S)C1(Cl)CC1 (stereo unspecified)', 0.0171);

---

conditions: in toluene, 298.15 K
property measured: solubility (mole fraction)

INSERT INTO assay_data (compound, property_measured, measured_number) VALUES
  ('OC(Cc1ccccc1Cl)(Cn1[nH]cnc1=S)C1(Cl)CC1 (stereo unspecified)', 'solubility (mole fraction)', 0.00481);

---

settings: in n-butanol, 288.15 K
property measured: solubility (mole fraction)

INSERT INTO assay_data (compound, measured_number) VALUES
  ('OC(Cc1ccccc1Cl)(Cn1[nH]cnc1=S)C1(Cl)CC1 (stereo unspecified)', 0.018);

---

conditions: in isopropanol, 308.15 K
property measured: solubility (mole fraction)

INSERT INTO measurements (compound, property_measured, measured_number) VALUES
  ('OC(Cc1ccccc1Cl)(Cn1[nH]cnc1=S)C1(Cl)CC1 (stereo unspecified)', 'solubility (mole fraction)', 0.0331);

---

details: in methanol, 283.15 K
property measured: solubility (mole fraction)

INSERT INTO results (compound, property_measured, measured_number) VALUES
  ('OC(Cc1ccccc1Cl)(Cn1[nH]cnc1=S)C1(Cl)CC1 (stereo unspecified)', 'solubility (mole fraction)', 0.01);

---

conditions: in toluene, 313.15 K
property measured: solubility (mole fraction)

INSERT INTO results (compound, measured_number) VALUES
  ('OC(Cc1ccccc1Cl)(Cn1[nH]cnc1=S)C1(Cl)CC1 (stereo unspecified)', 0.0101);

---

conditions: in n-butanol, 313.15 K
property measured: solubility (mole fraction)

INSERT INTO results (compound, property_measured, measured_number) VALUES
  ('OC(Cc1ccccc1Cl)(Cn1[nH]cnc1=S)C1(Cl)CC1 (stereo unspecified)', 'solubility (mole fraction)', 0.0513);

---

conditions: in isopropanol, 283.15 K
property measured: solubility (mole fraction)

INSERT INTO measurements (compound, result) VALUES
  ('OC(Cc1ccccc1Cl)(Cn1[nH]cnc1=S)C1(Cl)CC1 (stereo unspecified)', 0.0115);

---

settings: in sec-butanol, 313.15 K
property measured: solubility (mole fraction)

INSERT INTO assay_data (compound, property_measured, measured_number) VALUES
  ('OC(Cc1ccccc1Cl)(Cn1[nH]cnc1=S)C1(Cl)CC1 (stereo unspecified)', 'solubility (mole fraction)', 0.0321);
